- testedTarget: PDGFRβ (Homo sapiens, UniProt P09619)
- Sequence (P09619 33-1106): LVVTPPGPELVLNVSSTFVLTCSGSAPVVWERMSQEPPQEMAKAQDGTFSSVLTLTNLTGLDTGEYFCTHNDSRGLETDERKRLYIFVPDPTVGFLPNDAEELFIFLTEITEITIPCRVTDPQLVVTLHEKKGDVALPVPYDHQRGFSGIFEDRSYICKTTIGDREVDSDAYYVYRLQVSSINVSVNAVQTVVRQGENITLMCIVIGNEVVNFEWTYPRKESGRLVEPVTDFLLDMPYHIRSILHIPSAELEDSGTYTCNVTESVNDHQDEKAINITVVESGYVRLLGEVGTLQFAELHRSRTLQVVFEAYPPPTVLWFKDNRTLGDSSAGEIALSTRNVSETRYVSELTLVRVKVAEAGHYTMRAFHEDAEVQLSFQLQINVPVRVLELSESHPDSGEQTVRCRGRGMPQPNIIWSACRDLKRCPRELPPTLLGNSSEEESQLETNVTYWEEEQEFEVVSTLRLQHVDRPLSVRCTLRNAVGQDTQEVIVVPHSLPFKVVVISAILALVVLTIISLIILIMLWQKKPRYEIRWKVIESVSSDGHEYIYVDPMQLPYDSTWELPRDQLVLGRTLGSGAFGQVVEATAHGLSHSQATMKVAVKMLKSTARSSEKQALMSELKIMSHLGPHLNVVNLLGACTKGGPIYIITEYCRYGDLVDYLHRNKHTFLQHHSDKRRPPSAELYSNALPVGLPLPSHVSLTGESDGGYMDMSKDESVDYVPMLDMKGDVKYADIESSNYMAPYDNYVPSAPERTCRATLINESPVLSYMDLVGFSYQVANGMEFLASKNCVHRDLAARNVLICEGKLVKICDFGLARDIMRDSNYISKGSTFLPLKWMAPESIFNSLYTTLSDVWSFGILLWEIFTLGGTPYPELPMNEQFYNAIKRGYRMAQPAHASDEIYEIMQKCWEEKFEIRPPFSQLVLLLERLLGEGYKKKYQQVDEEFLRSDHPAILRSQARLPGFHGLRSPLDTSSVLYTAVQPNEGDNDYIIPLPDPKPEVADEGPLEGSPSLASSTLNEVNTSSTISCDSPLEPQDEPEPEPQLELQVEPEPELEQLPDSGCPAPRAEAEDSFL
- assaySummary: Off-chip mobility-shift kinase assay (Caliper LABCHIP), PDGFR
- setupConditions: concentration 1.0E−07
measuredAttribute: PDGFR AVG % Activity at 1.0E−07 (%)

> print(dat)
                                 smilesrepr  value
1  COCCOCCOCCOCCOCCOCCOCCOCCOCCN1CCN(Cc2ccc(C(=O)Nc3ccc(C)c(Nc4nccc(-c5cccnc5)n4)c3)cc2)CC1     74
2  COCCOCCOCCOCCOCCOCCOCCN1CCN(Cc2ccc(C(=O)Nc3ccc(C)c(Nc4nccc(-c5cccnc5)n4)c3)cc2)CC1     76
3  COCCOCCOCCOCCOCCOCCOCCOCCOCCNCc1ccc(C(=O)Nc2ccc(C)c(Nc3nccc(-c4cccnc4)n3)c2)cc1     65
4  COCCOCCOCCOCCOCCNCc1ccc(C(=O)Nc2ccc(C)c(Nc3nccc(-c4cccnc4)n3)c2)cc1     62
5  COCCOCCOCCOCCOCCOCCOCCNCc1ccc(C(=O)Nc2ccc(C)c(Nc3nccc(-c4cccnc4)n3)c2)cc1     67

====

- testedTarget: ABL (Homo sapiens, UniProt P00519)
- Sequence (P00519 whole entry): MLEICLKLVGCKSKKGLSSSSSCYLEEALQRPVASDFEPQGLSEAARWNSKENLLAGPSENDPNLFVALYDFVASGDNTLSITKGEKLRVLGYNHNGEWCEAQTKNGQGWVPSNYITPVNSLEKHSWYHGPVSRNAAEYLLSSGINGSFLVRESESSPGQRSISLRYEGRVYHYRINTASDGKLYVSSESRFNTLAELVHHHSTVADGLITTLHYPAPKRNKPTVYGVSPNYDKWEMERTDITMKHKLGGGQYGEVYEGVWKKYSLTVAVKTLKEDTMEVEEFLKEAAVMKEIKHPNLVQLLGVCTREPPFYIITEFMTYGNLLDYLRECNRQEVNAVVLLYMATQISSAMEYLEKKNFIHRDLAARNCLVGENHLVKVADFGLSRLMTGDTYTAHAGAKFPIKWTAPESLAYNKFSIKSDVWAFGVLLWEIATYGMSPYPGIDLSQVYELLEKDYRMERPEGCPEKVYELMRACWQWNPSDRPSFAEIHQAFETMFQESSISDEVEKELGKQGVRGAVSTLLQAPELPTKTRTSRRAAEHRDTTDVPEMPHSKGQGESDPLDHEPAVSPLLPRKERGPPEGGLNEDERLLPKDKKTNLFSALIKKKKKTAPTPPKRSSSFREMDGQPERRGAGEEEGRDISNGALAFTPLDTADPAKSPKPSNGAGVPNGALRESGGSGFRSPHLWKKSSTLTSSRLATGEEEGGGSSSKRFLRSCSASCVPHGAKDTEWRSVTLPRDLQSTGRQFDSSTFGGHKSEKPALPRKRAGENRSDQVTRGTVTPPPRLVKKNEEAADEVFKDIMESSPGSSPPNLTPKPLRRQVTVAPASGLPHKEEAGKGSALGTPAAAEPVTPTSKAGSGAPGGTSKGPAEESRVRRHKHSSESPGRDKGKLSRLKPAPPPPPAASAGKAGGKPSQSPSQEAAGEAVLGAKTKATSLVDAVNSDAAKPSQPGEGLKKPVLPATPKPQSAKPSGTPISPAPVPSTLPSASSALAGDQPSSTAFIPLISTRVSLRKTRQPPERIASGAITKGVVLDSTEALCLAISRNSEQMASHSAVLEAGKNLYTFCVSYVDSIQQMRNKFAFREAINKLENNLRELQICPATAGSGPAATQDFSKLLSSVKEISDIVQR
- assaySummary: Off-chip mobility-shift kinase assay (Caliper LABCHIP), ABL
- setupConditions: concentration 1.0E−06; imatinib-corresponding compounds
measuredAttribute: ABL AVG % Activity at 1.0E−06 (%)

> print(dat)
                                 smilesrepr              measuredattribute  value
1  COCCOCCOCCOCCOCCOCCOCCOCCOCCN1CCN(Cc2ccc(C(=O)Nc3ccc(C)c(Nc4nccc(-c5cccnc5)n4)c3)cc2)CC1  ABL AVG % Activity at 1.0E−06     69
2  COCCOCCOCCOCCOCCOCCOCCOCCOCCNCc1ccc(C(=O)Nc2ccc(C)c(Nc3nccc(-c4cccnc4)n3)c2)cc1  ABL AVG % Activity at 1.0E−06     77
3  COCCOCCOCCOCCOCCNCc1ccc(C(=O)Nc2ccc(C)c(Nc3nccc(-c4cccnc4)n3)c2)cc1  ABL AVG % Activity at 1.0E−06     74
4  COCCOCCOCCOCCOCCOCCOCCNCc1ccc(C(=O)Nc2ccc(C)c(Nc3nccc(-c4cccnc4)n3)c2)cc1  ABL AVG % Activity at 1.0E−06     73
5  COCCOCCOCCOCCOCCOCCOCCN1CCN(Cc2ccc(C(=O)Nc3ccc(C)c(Nc4nccc(-c5cccnc5)n4)c3)cc2)CC1  ABL AVG % Activity at 1.0E−06     69

====

- testedTarget: PDGFRβ (Homo sapiens, UniProt P09619)
- assaySummary: Off-chip mobility-shift kinase assay (Caliper LABCHIP), PDGFR
- setupConditions: concentration 3.0E−10
measuredAttribute: PDGFR AVG % Activity at 3.0E−10 (%)

> print(dat)
                                 smilesrepr                           testedtarget                measuredattribute  value
1  COCCOCCOCCOCCOCCOCCOCCOCCOCCN1CCN(Cc2ccc(C(=O)Nc3ccc(C)c(Nc4nccc(-c5cccnc5)n4)c3)cc2)CC1  PDGFRβ (Homo sapiens, UniProt P09619)  PDGFR AVG % Activity at 3.0E−10     95
2  COCCOCCOCCOCCOCCOCCOCCNCc1ccc(C(=O)Nc2ccc(C)c(Nc3nccc(-c4cccnc4)n3)c2)cc1  PDGFRβ (Homo sapiens, UniProt P09619)  PDGFR AVG % Activity at 3.0E−10     93
3  COCCOCCOCCOCCOCCOCCOCCN1CCN(Cc2ccc(C(=O)Nc3ccc(C)c(Nc4nccc(-c5cccnc5)n4)c3)cc2)CC1  PDGFRβ (Homo sapiens, UniProt P09619)  PDGFR AVG % Activity at 3.0E−10    100
4  COCCOCCOCCOCCOCCOCCOCCOCCOCCNCc1ccc(C(=O)Nc2ccc(C)c(Nc3nccc(-c4cccnc4)n3)c2)cc1  PDGFRβ (Homo sapiens, UniProt P09619)  PDGFR AVG % Activity at 3.0E−10     86
5  COCCOCCOCCOCCOCCNCc1ccc(C(=O)Nc2ccc(C)c(Nc3nccc(-c4cccnc4)n3)c2)cc1  PDGFRβ (Homo sapiens, UniProt P09619)  PDGFR AVG % Activity at 3.0E−10     92
